- experimentDescription: in vivo
- Assay type: in vivo, BALB/cAnNCrl mice
- appliedConditions: male, BALB/cAnNCrl, mouse, in vivo, iv, 0.0677 umol/kg, iv bolus, mice, Mean; read-out: Vss
recordedEndpoint: Vd (L/kg)
Report the value in L/kg with no unit label.

Q. Look up Vd for this compound: CO[C@H](c1ccccc1)[C@@H]1NC(=O)[C@H](C)NC(=O)[C@H](C[C@@H](C)CO)N(C)C(=O)[C@H](Cc2cn(Cc3cn(CCOCCn4cc(Cn5cc(C[C@@H]6NC(=O)[C@H](C(C)C)NC(=O)[C@H](CC(C)C)N(C)C(=O)[C@H](C(C)C)NC(=O)[C@H]([C@H](OC)c7ccccc7)NC(=O)[C@H](C)NC(=O)[C@H](C[C@@H](C)CO)N(C)C6=O)c6ccccc65)nn4)nn3)c3ccccc23)NC(=O)[C@H](C(C)C)NC(=O)[C@H](CC(C)C)N(C)C(=O)[C@H](C(C)C)NC1=O [Compound 6]
A. 1

###

- tgt: ClpC1-NTD substrate, M. tuberculosis ClpC1P1P2 (Mycobacterium tuberculosis, UniProt P9WPC9)
- Sequence (P9WPC5 whole entry): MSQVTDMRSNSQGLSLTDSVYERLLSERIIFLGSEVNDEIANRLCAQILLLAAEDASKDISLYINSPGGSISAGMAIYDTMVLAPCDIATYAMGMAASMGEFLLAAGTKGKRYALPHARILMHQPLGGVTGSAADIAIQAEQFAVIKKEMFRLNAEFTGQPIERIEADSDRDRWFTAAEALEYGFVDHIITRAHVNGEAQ
- Sequence (P9WPC9 whole entry): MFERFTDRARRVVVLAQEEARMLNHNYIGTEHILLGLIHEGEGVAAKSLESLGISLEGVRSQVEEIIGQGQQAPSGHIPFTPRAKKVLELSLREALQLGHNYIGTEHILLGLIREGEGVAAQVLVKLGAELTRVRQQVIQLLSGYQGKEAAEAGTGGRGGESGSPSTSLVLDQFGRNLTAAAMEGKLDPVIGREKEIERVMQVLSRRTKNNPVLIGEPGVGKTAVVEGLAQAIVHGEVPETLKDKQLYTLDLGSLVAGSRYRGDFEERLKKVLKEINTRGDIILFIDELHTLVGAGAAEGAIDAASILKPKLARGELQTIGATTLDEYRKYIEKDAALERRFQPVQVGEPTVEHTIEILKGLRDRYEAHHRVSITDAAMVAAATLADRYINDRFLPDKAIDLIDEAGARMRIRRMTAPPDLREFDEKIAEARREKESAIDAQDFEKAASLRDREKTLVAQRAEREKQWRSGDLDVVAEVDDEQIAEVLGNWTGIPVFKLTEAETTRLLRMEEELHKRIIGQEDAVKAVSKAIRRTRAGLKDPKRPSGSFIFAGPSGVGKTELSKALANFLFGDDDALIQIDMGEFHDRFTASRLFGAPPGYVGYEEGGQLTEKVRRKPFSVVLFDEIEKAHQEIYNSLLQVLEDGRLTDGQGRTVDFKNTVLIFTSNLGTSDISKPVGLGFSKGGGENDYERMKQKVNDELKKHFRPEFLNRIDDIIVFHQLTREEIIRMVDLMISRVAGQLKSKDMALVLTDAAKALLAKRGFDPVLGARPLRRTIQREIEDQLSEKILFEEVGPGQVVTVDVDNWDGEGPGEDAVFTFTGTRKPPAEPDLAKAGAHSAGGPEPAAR
- Sequence (P9WPC3 whole entry, further chain): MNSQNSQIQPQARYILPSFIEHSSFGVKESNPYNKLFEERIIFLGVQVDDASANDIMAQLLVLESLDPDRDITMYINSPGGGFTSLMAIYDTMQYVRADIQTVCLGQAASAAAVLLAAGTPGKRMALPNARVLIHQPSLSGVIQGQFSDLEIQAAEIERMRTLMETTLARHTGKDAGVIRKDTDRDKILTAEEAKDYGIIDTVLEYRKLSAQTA
- experimentDescription: biochemical
- Format: biochemical
- appliedConditions: Mtb; mean of the measurements; read-out: 1-Dmax, Mean
recordedEndpoint: 1-Dmax (percent substrate remaining at maximal degradation) (%)
The reply should contain only the number, in %.

inputSmiles	quantityUnit	readoutValue
CO[C@H](c1ccccc1)[C@@H]1NC(=O)[C@H](C)NC(=O)[C@H](C[C@@H](C)CO)N(C)C(=O)[C@H](Cc2cn(Cc3cn(CCOCCn4cc(Cn5cc(C[C@@H]6NC(=O)[C@H](C(C)C)NC(=O)[C@H](CC(C)C)N(C)C(=O)[C@H](C(C)C)NC(=O)[C@H]([C@H](OC)c7ccccc7)NC(=O)[C@H](C)NC(=O)[C@H](C[C@@H](C)CO)N(C)C6=O)c6ccccc65)nn4)nn3)c3ccccc23)NC(=O)[C@H](C(C)C)NC(=O)[C@H](CC(C)C)N(C)C(=O)[C@H](C(C)C)NC1=O	%	54
CO[C@H](c1ccccc1)[C@@H]1NC(=O)[C@H](C)NC(=O)[C@H](C[C@@H](C)CO)N(C)C(=O)[C@H](Cc2cn(Cc3cn(CCOCCOCCOCCOCCn4cc(Cn5cc(C[C@H]6C(=O)N(C)[C@@H](C[C@@H](C)CO)C(=O)N[C@@H](C)C(=O)N[C@@H]([C@H](OC)c7ccccc7)C(=O)N[C@@H](C(C)C)C(=O)N(C)[C@@H](CC(C)C)C(=O)N[C@@H](C(C)C)C(=O)N6C)c6ccccc65)nn4)nn3)c3ccccc23)N(C)C(=O)[C@H](C(C)C)NC(=O)[C@H](CC(C)C)N(C)C(=O)[C@H](C(C)C)NC1=O	%	74
CO[C@H](c1ccccc1)[C@@H]1NC(=O)[C@H](C)NC(=O)[C@H](C[C@@H](C)CO)N(C)C(=O)[C@H](Cc2cn(C)c3ccccc23)N(C)C(=O)[C@H](Cc2cn(CCOCCOCCn3cc(C[C@@H]4NC(=O)[C@H](CC(C)C)N(C)C(=O)[C@H](C(C)C)NC(=O)[C@H]([C@H](OC)c5ccccc5)NC(=O)[C@H](C)NC(=O)[C@H](C[C@@H](C)CO)N(C)C(=O)[C@H](Cc5cn(C)c6ccccc56)N(C)C4=O)nn3)nn2)NC(=O)[C@H](CC(C)C)N(C)C(=O)[C@H](C(C)C)NC1=O	%	84
CO[C@H](c1ccccc1)[C@@H]1NC(=O)[C@H](C)NC(=O)[C@H](C[C@@H](C)CO)N(C)C(=O)[C@H](Cc2cn(Cc3cn(CCCCCn4cc(Cn5cc(C[C@@H]6NC(=O)[C@H](C(C)C)NC(=O)[C@H](CC(C)C)N(C)C(=O)[C@H](C(C)C)NC(=O)[C@H]([C@H](OC)c7ccccc7)NC(=O)[C@H](C)NC(=O)[C@H](C[C@@H](C)CO)N(C)C6=O)c6ccccc65)nn4)nn3)c3ccccc23)NC(=O)[C@H](C(C)C)NC(=O)[C@H](CC(C)C)N(C)C(=O)[C@H](C(C)C)NC1=O	%	26

In the following, a different compound is considered.
Q. Looking for the measured 1-Dmax (percent substrate remaining at maximal degradation) of `CO[C@H](c1ccccc1)[C@@H]1NC(=O)[C@H](C)NC(=O)[C@H](C[C@@H](C)CO)N(C)C(=O)[C@H](Cc2cn(C)c3ccccc23)NC(=O)[C@H](Cc2cn(CCOCCOCCn3cc(C[C@@H]4NC(=O)[C@H](CC(C)C)N(C)C(=O)[C@H](C(C)C)NC(=O)[C@H]([C@H](OC)c5ccccc5)NC(=O)[C@H](C)NC(=O)[C@H](C[C@@H](C)CO)N(C)C(=O)[C@H](Cc5cn(C)c6ccccc56)NC4=O)nn3)nn2)NC(=O)[C@H](CC(C)C)N(C)C(=O)[C@H](C(C)C)NC1=O` , can you help?
A. 74
